// provenance: patent US20100035873A1

pKi: −log10 of the molar value.
Parameter 'readout' = pKi; parameter 'system' = human kappa opioid receptor (Homo sapiens, UniProt P41145).
Sequence (P41145 whole entry): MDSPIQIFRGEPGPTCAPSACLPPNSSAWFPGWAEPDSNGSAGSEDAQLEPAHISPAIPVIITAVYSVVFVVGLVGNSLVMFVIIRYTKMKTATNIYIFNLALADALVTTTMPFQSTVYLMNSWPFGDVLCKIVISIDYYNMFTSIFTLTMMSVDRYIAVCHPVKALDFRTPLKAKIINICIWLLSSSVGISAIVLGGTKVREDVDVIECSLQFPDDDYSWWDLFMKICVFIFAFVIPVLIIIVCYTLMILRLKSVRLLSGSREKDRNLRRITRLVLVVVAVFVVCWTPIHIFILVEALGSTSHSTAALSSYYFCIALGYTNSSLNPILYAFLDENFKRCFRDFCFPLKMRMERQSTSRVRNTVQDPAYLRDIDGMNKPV
Measurement Kind: pKi

Molecule: CC1(C)CCCN(Cc2ccc(-c3ccccc3S(=O)(=O)N3CCCC3)cc2)C1 [Example 4e]
Experimental Target: human kappa opioid receptor (Homo sapiens, UniProt P41145)
Measurement Kind: pKi
Result: 8.20 to 8.30

Molecule: CC(C)CNCc1ccc(-c2ccccc2S(=O)(=O)N(C)C(C)C)cc1 [Example 4v]
Experimental Target: human kappa opioid receptor (Homo sapiens, UniProt P41145)
Measurement Kind: pKi
Result: 8.21

Molecule: C[C@@H]1COCCN1S(=O)(=O)c1ccccc1-c1ccc(CNCCC(C)(C)C)c(F)c1 [Example 4o]
Experimental Target: human kappa opioid receptor (Homo sapiens, UniProt P41145)
Measurement Kind: pKi
Result: 8.29 to 8.68

Molecule: O=S(=O)(c1ccccc1-c1ccc(CN2C[C@H]3CCC[C@@H]2C3)c(F)c1)N1CCCC1 [Example 4m]
Experimental Target: human kappa opioid receptor (Homo sapiens, UniProt P41145)
Measurement Kind: pKi
Result: 8.16 to 8.85

Molecule: COc1cc(-c2ccccc2S(=O)(=O)N2CCCC2)ccc1CNCC(C)C [Example 4y]
Experimental Target: human kappa opioid receptor (Homo sapiens, UniProt P41145)
Measurement Kind: pKi
Result: 7.61 to 7.90

Molecule: C[C@@H]1COCCN1S(=O)(=O)c1ccccc1-c1ccc(CNCCC(C)(C)C)cc1 [Example 4k]
Experimental Target: human kappa opioid receptor (Homo sapiens, UniProt P41145)
Measurement Kind: pKi
Result: 8.63 to 8.92

Molecule: O=S(=O)(c1cccnc1-c1ccc(CNC2C[C@@H]3CC[C@H]2C3)cc1)N1CCCC1 (some centres unmarked) [Example 4x]
Experimental Target: human kappa opioid receptor (Homo sapiens, UniProt P41145)
Measurement Kind: pKi
Result: 7.91

Molecule: O=S(=O)(c1ncccc1-c1ccc(CNC2CC3CCC2C3)cc1)N1CCCC1 (centres unmarked) [Example 4t]
Experimental Target: human kappa opioid receptor (Homo sapiens, UniProt P41145)
Measurement Kind: pKi
Result: 8.24
